Molecular target: thrombin (Homo sapiens (Human), UniProt P00734)
Test: Determination of the thrombin-inhibitory activity in plasma samples (ecarin, fluorogenic thrombin substrate)
Details: thrombin inhibition in citrate plasma (Octapharma), ecarin-stimulated
pIC50: −log10 of the molar value.
Measured pIC50 of individual entries

- compound_smiles: "Cc1cc(N2C[C@H](CNC(=O)c3ccc(Cl)s3)OC2=O)ccc1-n1cccc(CCO)c1=O"
  pIC50: 6.73
- compound_smiles: "COCc1cc(N2C[C@H](CNC(=O)c3ccc(Cl)s3)OC2=O)ccc1-n1cccc(CCO)c1=O"
  pIC50: 7.80
- compound_smiles: "Cc1cc(N2C[C@H](CNC(=O)c3ccc(Cl)s3)OC2=O)ccc1-n1cccc(CO)c1=O"
  pIC50: 6.70
- compound_smiles: "Cc1cc(N2C[C@H](CNC(=O)c3ccc(Cl)s3)OC2=O)ccc1-n1cccc(CCCO)c1=O"
  pIC50: 7.13

meta.source: patent US8487111B2
